SYSTEM_UNDER_TEST: HLA-B*08:01
PROTOCOL: IEDB peptide-MHC binding, purified MHC/competitive/radioactivity; filed as Kd, often an IC50 or EC50 that approximates it; bounds were set here for any values at or beyond the usual limits of such assays
SETTINGS: source organism: Dengue virus 2 Jamaica/1409/1983
Listing of entries alongside the reported pKd.
Please note pKd is a logarithmic value: minus log10 of concentration in mol/L. Answer with that number alone.

Answered cases to consult:
> print(dat)
   sequence.string  readout.value
1       IKRGLRTLIL           4.99
2       KREDQWCGSL           5.11

Could you now look at the following sequence, please?
Ask: Can you look up the measured pKd of MRRGDLPVWL for me?
Reply: 5.24

----------
SYSTEM_UNDER_TEST: HLA-B*44:02
PROTOCOL: IEDB peptide-MHC binding, purified MHC/competitive/radioactivity; filed as Kd, often an IC50 or EC50 that approximates it; bounds were set here for any values at or beyond the usual limits of such assays
SETTINGS: source organism: Dengue virus 4 Dominica/814669/1981
READOUT_LABEL: Kd (nM)
Response body: numeric value in nM, unit text excluded.

Ask: What value of Kd on HLA-B*44:02 does SDLKYSWKTW have?
Reply: 1010

----------
SYSTEM_UNDER_TEST: HLA-A*02:06
PROTOCOL: IEDB peptide-MHC binding, purified MHC/competitive/radioactivity; filed as Kd, often an IC50 or EC50 that approximates it; bounds were set here for any values at or beyond the usual limits of such assays
SETTINGS: source organism: Human immunodeficiency virus type 1 BH10
READOUT_LABEL: pKd
API: returns pKd as number; meaning -log10 of concentration in mol/L.

Ask: I have this sequence here, RGPGRAFVTI , and I need its recorded pKd.
Reply: 5.24

----------
SYSTEM_UNDER_TEST: HLA-B*40:01
PROTOCOL: IEDB peptide-MHC binding, purified MHC/direct/fluorescence; filed as Kd, often an IC50 or EC50 that approximates it; bounds were set here for any values at or beyond the usual limits of such assays
SETTINGS: source organism: Haemophilus influenzae
READOUT_LABEL: Kd

> print(dat)
   sequence.string  system.under.test  readout.value
1        EIKFNDITF        HLA-B*40:01        ≥ 20 µM

Ask: Which Kd value is on record for YATVAGHEG ?
Reply: ≥ 20 µM

----------
SYSTEM_UNDER_TEST: HLA-A*30:02
PROTOCOL: IEDB peptide-MHC binding, purified MHC/competitive/radioactivity; filed as Kd, often an IC50 or EC50 that approximates it; bounds were set here for any values at or beyond the usual limits of such assays
SETTINGS: source organism: Dengue virus 2 Jamaica/1409/1983
READOUT_LABEL: pKd
Would you please state pKd, meaning minus log10 of the concentration in mol/L, as a bare number?

Ask: Quick check: pKd of GVPLLAIGCY ?
Reply: 5.47

----------
SYSTEM_UNDER_TEST: HLA-A*31:01
PROTOCOL: IEDB peptide-MHC binding, purified MHC/competitive/radioactivity; filed as Kd, often an IC50 or EC50 that approximates it; bounds were set here for any values at or beyond the usual limits of such assays
SETTINGS: source organism: Triticum aestivum
READOUT_LABEL: Kd (µM)
Give just the numeric value; µM need not be written.

Ask: Please look up its Kd: VVLQQHNIVH
Reply: 5.2

----------
SYSTEM_UNDER_TEST: HLA-C*15:02
PROTOCOL: IEDB peptide-MHC binding, purified MHC/direct/fluorescence; filed as Kd, often an IC50 or EC50 that approximates it; bounds were set here for any values at or beyond the usual limits of such assays
SETTINGS: source organism: Yersinia pestis Nepal516
pKd: −log10 of the molar value.
READOUT_LABEL: pKd

Ask: If you can, please state the reported pKd value of MAMPEYWQF .
Reply: ≤ 4.70

----------
SYSTEM_UNDER_TEST: HLA-B*27:03
PROTOCOL: IEDB peptide-MHC binding, purified MHC/direct/fluorescence; filed as Kd, often an IC50 or EC50 that approximates it; bounds were set here for any values at or beyond the usual limits of such assays
SETTINGS: source organism: Giardia lamblia ATCC 50803
pKd: −log10 of the molar value.
READOUT_LABEL: pKd

Ask: Look at this sequence and give its reported pKd. LTIVFVPEV
Reply: ≤ 4.70

----------
SYSTEM_UNDER_TEST: HLA-B*08:03
PROTOCOL: IEDB peptide-MHC binding, purified MHC/competitive/fluorescence; filed as Kd, often an IC50 or EC50 that approximates it; bounds were set here for any values at or beyond the usual limits of such assays
SETTINGS: source organism: Homo sapiens
READOUT_LABEL: Kd

Ask: Return reported Kd; argument: TYSPALNKM
Reply: ≥ 20 µM

----------
SYSTEM_UNDER_TEST: HLA-B*08:01
PROTOCOL: IEDB peptide-MHC binding, purified MHC/direct/fluorescence; filed as Kd, often an IC50 or EC50 that approximates it; bounds were set here for any values at or beyond the usual limits of such assays
SETTINGS: source organism: Vibrio parahaemolyticus AQ3810
READOUT_LABEL: Kd

Ask: Looking for the measured Kd of MLDQFGVSY , can you help?
Reply: ≥ 20 µM

----------
SYSTEM_UNDER_TEST: HLA-A*24:02
PROTOCOL: IEDB peptide-MHC binding, purified MHC/competitive/fluorescence; bounds were set here for any values at or beyond the usual limits of such assays
SETTINGS: source organism: Sudan ebolavirus
READOUT_LABEL: pIC50
Keep in mind that pIC50 stands for -log10 of concentration in molar terms.

Illustrative cases are given below, each with its answer.
> print(dat)
   sequence.string  system.under.test  readout.value
1        ATSYLEYEI        HLA-A*24:02           5.29
2        HTPQFLFQL        HLA-A*24:02           5.95
3        IYRGVNFAE        HLA-A*24:02           5.30

Next sequence, pIC50 to be filled in.
Ask: May I ask what pIC50 has been recorded for TFLQSPPIR ?
Reply: 4.41

----------
SYSTEM_UNDER_TEST: HLA-A*68:02
PROTOCOL: IEDB peptide-MHC binding, purified MHC/competitive/radioactivity; filed as Kd, often an IC50 or EC50 that approximates it; bounds were set here for any values at or beyond the usual limits of such assays
SETTINGS: source organism: Lassa virus Josiah
READOUT_LABEL: Kd
Please answer in the form of a number followed by its unit of measurement.

Ask: I'm curious: which Kd was measured for IMTSYQYLI tested on HLA-A*68:02?
Reply: 698 nM

----------
SYSTEM_UNDER_TEST: HLA-B*51:01
PROTOCOL: IEDB peptide-MHC binding, purified MHC/competitive/fluorescence; filed as Kd, often an IC50 or EC50 that approximates it; bounds were set here for any values at or beyond the usual limits of such assays
SETTINGS: source organism: Vibrio parahaemolyticus AQ3810
pKd: −log10 of the molar value.
READOUT_LABEL: pKd

Ask: Record lookup: for HLA-B*51:01, what pKd belongs to KVGYFQHGA ?
Reply: ≤ 4.70

----------
SYSTEM_UNDER_TEST: HLA-B*46:01
PROTOCOL: IEDB peptide-MHC binding, purified MHC/direct/fluorescence; filed as Kd, often an IC50 or EC50 that approximates it; bounds were set here for any values at or beyond the usual limits of such assays
SETTINGS: source organism: Yellow fever virus
READOUT_LABEL: Kd

Ask: Could you share which Kd value was measured for FHKRDMRLL ?
Reply: ≥ 20 µM

----------
SYSTEM_UNDER_TEST: HLA-A*30:01
PROTOCOL: IEDB peptide-MHC binding, purified MHC/competitive/fluorescence; filed as Kd, often an IC50 or EC50 that approximates it; bounds were set here for any values at or beyond the usual limits of such assays
SETTINGS: source organism: Vaccinia virus Copenhagen
READOUT_LABEL: Kd

Ask: Entry under review: RHDITGFIL . Reported Kd?
Reply: ≥ 20 µM

----------
SYSTEM_UNDER_TEST: HLA-A*03:01
PROTOCOL: IEDB peptide-MHC binding, purified MHC/direct/fluorescence; filed as Kd, often an IC50 or EC50 that approximates it; bounds were set here for any values at or beyond the usual limits of such assays
SETTINGS: source organism: Giardia lamblia ATCC 50803
pKd: −log10 of the molar value.
READOUT_LABEL: pKd

> print(dat)
   sequence.string  readout.value
1        ARADGILRF         ≤ 4.70

Next item in the queue.
Ask: Form field: reported pKd of LTIVFVPEV
Reply: ≤ 4.70
